System: beta-2-microglobulin (Homo sapiens, UniProt P61769)
Sequence (P61769 22-119): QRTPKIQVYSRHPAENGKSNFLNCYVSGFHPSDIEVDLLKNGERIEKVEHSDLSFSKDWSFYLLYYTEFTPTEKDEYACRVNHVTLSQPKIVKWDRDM
Assay protocol: SPR
pKd: −log10 of the molar value. Bridges are numbered along the chain shown (N, C = ends). Where no end group is shown, it is not given here.

>  <Binder>
CFETAWRQNEWC (disulfide 1-12 (inferred)) [pep331]

>  <pKd>
3.52

$$$$
